# tgt: wild-type HIV RT (Human immunodeficiency virus type 1 group M subtype B, UniProt P03366)
# Construct: IC50 is indicated in microM for wild-type HIV RT
# measurement description: IC50 for wild-type HIV RT
# Assay type: biochemical
# conditions: Table 1
pIC50: −log10 of the molar value.
So I've got a bunch of compounds here, and I need their pIC50 values.

Query :: Request body: readout pIC50, system wild-type HIV RT (Human immunodeficiency virus type 1 group M subtype B, UniProt P03366), query O=C(CSc1nnc(C2CCCCC2)n1-c1ccccc1)Nc1ccccc1Br [compound 34] . Return the value.
Result :: 4.00 to 5.00

Query :: Next compound: Cc1ccc(NC(=O)CSc2nnc(Cc3ccccc3)n2C)c(Br)c1 [compound 29]
Result :: 4.00 to 5.00

Query :: Next compound: Cc1cccc(NC(=O)CSc2nnc(C)n2-c2ccccc2)c1 [compound 40]
Result :: 4.00 to 5.00

Query :: Next compound: CC(=O)c1ccc(NC(=O)CSc2nnc(C)n2-c2ccc(C)cc2)cc1 [compound 41]
Result :: 4.00 to 5.00

Query :: Next compound: Cc1ccc(NCc2nnc(SCC(=O)Nc3ccc(C)cc3Br)n2-c2ccccc2)cc1 [compound 33]
Result :: 4.00 to 5.00
